attributeMeasured: IC50 (µM)
Answer format: numeric, µM implied, no suffix.

Assay UniProt:P17252, sample `O=C1c2oc(-c3ccc(Cl)cc3)cc2Cc2cc(N3CCNCC3)ccc2N1Cc1ccccc1-c1cccnc1` , IC50 read: 10

* * *

target: Interleukin-1 receptor-associated kinase 4 (Homo sapiens); assay: Inhibition of IRAK4 (unknown origin)
Sequence (Q9NWZ3 whole entry): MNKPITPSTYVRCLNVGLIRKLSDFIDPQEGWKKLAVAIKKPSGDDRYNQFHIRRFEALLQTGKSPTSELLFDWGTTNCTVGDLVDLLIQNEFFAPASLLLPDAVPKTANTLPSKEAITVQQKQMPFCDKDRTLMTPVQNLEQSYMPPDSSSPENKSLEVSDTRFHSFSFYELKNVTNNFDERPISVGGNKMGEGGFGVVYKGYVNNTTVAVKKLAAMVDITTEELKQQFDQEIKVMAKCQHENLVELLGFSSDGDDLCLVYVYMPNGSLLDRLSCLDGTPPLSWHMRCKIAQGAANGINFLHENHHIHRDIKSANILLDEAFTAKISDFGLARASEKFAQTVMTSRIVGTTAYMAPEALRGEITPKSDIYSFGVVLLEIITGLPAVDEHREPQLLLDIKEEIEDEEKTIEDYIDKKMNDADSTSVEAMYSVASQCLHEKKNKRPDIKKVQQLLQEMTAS
attributeMeasured: IC50 (µM)
Answer format: numeric, µM implied, no suffix.

Given item `O=C1c2oc(-c3ccc(Cl)cc3)cc2Cc2cc(N3CCNCC3)ccc2N1Cc1ccccc1-c1cccnc1` , the value recorded as its IC50 is 26

* * *

target: MAP kinase-activated protein kinase 2 (Homo sapiens)
Sequence (P49137 whole entry): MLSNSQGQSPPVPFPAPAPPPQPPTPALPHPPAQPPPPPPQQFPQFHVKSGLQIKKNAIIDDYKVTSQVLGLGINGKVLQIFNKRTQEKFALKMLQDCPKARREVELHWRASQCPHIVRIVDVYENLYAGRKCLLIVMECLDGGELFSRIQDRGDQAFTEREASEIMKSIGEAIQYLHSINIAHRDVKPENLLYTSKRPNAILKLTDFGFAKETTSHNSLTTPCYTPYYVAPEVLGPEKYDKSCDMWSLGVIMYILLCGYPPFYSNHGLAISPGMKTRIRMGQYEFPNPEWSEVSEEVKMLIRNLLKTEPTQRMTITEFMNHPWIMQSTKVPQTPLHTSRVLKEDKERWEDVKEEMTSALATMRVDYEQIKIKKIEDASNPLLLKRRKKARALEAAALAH
attributeMeasured: IC50 (nM)
Answer format: numeric, nM implied, no suffix.

Given item `O=C1c2oc(-c3ccc(Cl)cc3)cc2Cc2cc(N3CCNCC3)ccc2N1Cc1ccccc1-c1cccnc1` , the value recorded as its IC50 is 22

* * *

Target: Calcium/calmodulin-dependent protein kinase type IV (Homo sapiens, UniProt Q16566)
Sequence (Q16566 whole entry): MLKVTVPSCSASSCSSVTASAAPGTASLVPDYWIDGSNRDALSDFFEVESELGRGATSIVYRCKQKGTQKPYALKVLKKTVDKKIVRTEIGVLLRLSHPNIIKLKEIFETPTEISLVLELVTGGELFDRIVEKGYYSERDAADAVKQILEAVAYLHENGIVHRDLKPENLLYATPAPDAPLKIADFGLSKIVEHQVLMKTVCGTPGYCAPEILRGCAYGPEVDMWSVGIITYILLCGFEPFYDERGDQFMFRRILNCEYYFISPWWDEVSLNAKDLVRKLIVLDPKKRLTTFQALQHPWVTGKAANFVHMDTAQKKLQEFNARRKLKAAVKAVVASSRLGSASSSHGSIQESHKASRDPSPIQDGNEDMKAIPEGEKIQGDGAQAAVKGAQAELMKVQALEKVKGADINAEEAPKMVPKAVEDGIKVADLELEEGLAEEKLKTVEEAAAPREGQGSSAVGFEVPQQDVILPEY
Assay: Inhibition of CAMK4 (unknown origin)
attributeMeasured: pIC50
In plain terms, pIC50 is the concentration in mol/L turned into minus its base-10 logarithm.

Given item `O=C1c2oc(-c3ccc(Cl)cc3)cc2Cc2cc(N3CCNCC3)ccc2N1Cc1ccccc1-c1cccnc1` , the value recorded as its pIC50 is 4.57

* * *

attributeMeasured: IC50

Assay Serine/threonine-protein kinase Chk1 (Homo sapiens), sample `O=C1c2oc(-c3ccc(Cl)cc3)cc2Cc2cc(N3CCNCC3)ccc2N1Cc1ccccc1-c1cccnc1` , IC50 read: > 18 µM

* * *

pIC50: −log10 of the molar value.
attributeMeasured: pIC50

Assay Epidermal growth factor receptor (Homo sapiens), sample `O=C1c2oc(-c3ccc(Cl)cc3)cc2Cc2cc(N3CCNCC3)ccc2N1Cc1ccccc1-c1cccnc1` , pIC50 read: < 4.52

* * *

molecular target: Serine/threonine-protein kinase PLK3 (Homo sapiens, UniProt Q9H4B4)
Sequence (Q9H4B4 whole entry): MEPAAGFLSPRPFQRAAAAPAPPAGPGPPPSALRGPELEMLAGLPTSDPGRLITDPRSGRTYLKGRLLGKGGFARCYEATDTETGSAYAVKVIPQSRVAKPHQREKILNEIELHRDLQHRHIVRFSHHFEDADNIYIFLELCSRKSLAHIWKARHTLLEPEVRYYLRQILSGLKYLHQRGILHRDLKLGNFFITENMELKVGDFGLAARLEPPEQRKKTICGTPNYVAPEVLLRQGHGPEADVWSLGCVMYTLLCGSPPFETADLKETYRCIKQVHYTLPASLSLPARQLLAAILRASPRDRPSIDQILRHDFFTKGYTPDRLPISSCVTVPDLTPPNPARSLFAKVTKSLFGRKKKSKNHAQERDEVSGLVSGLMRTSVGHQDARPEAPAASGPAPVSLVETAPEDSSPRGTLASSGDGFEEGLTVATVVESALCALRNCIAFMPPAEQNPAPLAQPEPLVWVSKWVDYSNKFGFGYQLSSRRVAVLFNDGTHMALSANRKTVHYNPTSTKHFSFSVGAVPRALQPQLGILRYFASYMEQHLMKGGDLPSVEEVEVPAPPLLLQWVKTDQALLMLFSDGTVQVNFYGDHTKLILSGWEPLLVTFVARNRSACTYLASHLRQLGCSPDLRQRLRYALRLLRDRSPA
attributeMeasured: IC50

Given item `O=C1c2oc(-c3ccc(Cl)cc3)cc2Cc2cc(N3CCNCC3)ccc2N1Cc1ccccc1-c1cccnc1` , the value recorded as its IC50 is > 30 µM

* * *

target: Mitogen-activated protein kinase 1 (Homo sapiens, UniProt P28482); assay: Inhibition of ERK2 (unknown origin)
Sequence (P28482 whole entry): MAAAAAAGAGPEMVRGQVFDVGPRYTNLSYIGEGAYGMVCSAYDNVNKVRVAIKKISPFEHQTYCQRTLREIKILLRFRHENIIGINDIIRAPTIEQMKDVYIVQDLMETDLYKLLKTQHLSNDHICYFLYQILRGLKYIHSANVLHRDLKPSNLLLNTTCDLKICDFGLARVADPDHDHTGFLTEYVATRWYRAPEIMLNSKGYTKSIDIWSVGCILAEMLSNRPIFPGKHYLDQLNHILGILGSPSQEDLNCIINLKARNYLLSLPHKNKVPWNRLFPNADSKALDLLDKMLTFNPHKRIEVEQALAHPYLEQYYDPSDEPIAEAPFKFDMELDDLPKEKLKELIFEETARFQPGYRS
pIC50: −log10 of the molar value.
attributeMeasured: pIC50

Given item `O=C1c2oc(-c3ccc(Cl)cc3)cc2Cc2cc(N3CCNCC3)ccc2N1Cc1ccccc1-c1cccnc1` , the value recorded as its pIC50 is < 4.52
